Where do these numbers come from? They come from PubChem BioAssay.

# reported activity remaining; entries follow
# System: Aerobactin synthetase IucA (Klebsiella pneumoniae hvKP1)
# test: Biochemical IucA enzyme inhibition primary screen of the Spectrum library (AID 1346200);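 also: 100% = wells without compound and 0% = wells lacking enzyme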
# particulars: malachite green pyrophosphate, A620, at 8 µM, stronger effect = lower value

compound: C[C@H]1[C@H](C)CC[C@]2(CO)CC[C@]3(C)C(=CCC4[C@@]5(C)CC[C@H](O)C(C)(C)C5CC[C@]43C)[C@H]12 (stereo not given in full)
targetSystem: Aerobactin synthetase IucA (Klebsiella pneumoniae hvKP1)
unitAnnotation: %
activity remaining: 117
--
compound: Oc1ccc(Cl)cc1
targetSystem: Aerobactin synthetase IucA (Klebsiella pneumoniae hvKP1)
unitAnnotation: %
activity remaining: 115
--
compound: CC(CO)NC(=O)C1C=C2c3cccc4[nH]cc(c34)C[C@H]2N(C)C1 (stereo not given in full)
targetSystem: Aerobactin synthetase IucA (Klebsiella pneumoniae hvKP1)
unitAnnotation: %
activity remaining: 98.2
--
compound: CCOC(=O)OC(C)OC(=O)C1N2C(=O)C(NC(=O)[C@H](N)c3ccccc3)C2SC1(C)C (stereo not given in full)
targetSystem: Aerobactin synthetase IucA (Klebsiella pneumoniae hvKP1)
unitAnnotation: %
activity remaining: 104
--
compound: COc1c(OC)c2occc2c2oc(=O)ccc12
targetSystem: Aerobactin synthetase IucA (Klebsiella pneumoniae hvKP1)
unitAnnotation: %
activity remaining: 122
